Measurement protocol: ATG_CRE_CIS: Attagene CIS-FACTORIAL HepG2 Assay for human cAMP Responsive Element (CRE) binding protein 3 (AID 2282926)
Experimental context: HepG2 CRE cis-reporter, Attagene multiplexed mRNA; actives raise or lower the signal
Active and inactive are the calls of the source. The calls were made as follows: active = hit-call score of the fitted dose curve at least 0.9, where 1 is the maximum; inactive = score below 0.9.
Assay readout: outcome

1. COC(Cc1ccccc1)OC :: inactive
2. CC1=CC(C)C(C=O)CC1 (stereo not drawn) :: inactive
3. CCOC(=O)[C@H](O)[C@@H](O)C(=O)OCC :: inactive

* * *

Measurement protocol: BSK_3C_SRB: Viability Assessment in the BioMAP Diversity Plus: 3C Assay (AID 2283023);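 also: cells read 24 h after compound dosing; fitted both ways against DMSO so a hit may be signal rise or drop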
Experimental context: primary human endothelial cells (HUVEC)
The source made the active and inactive calls. The calls were made as follows: active = hit-call score of the fitted dose curve at least 0.9, where 1 is the maximum; inactive = score below 0.9.
Assay readout: AC50

1) CCNc1nc(NC(C)(C)C)nc(OC)n1 :: inactive
2) CCCCCCC=O :: inactive
3) Oc1ccccc1Cc1ccccc1O :: inactive
4) c1ccc2sc(SSN3CCOCC3)nc2c1 :: 6.19 µM (active)
5) CCN1CN(CC)CN(CC)C1 :: inactive
6) CCCCCCCCC(CO)CCCCCC (stereo unspecified) :: inactive

* * *

Target of assay: Hypoxia-inducible factor 1-alpha (Homo sapiens)
Measurement protocol: ATG_HIF1a_CIS: Attagene CIS-FACTORIAL HepG2 Assay for human Hypoxia Inducible Factor 1 (HIF1A) (AID 2282951)
Experimental context: HepG2 Attagene cis-factorial HIF1a reporter transcription; actives raise or lower the signal
Active and inactive are the calls of the source. The calls were made as follows: active = hit-call score of the fitted dose curve at least 0.9, where 1 is the maximum; inactive = score below 0.9.
Assay readout: AC50

1. N#Cc1ccc(C(c2ccc(C#N)cc2)n2cncn2)cc1 :: inactive
2. CC1=CCC(C(C)C)C=C1 (configuration not stated) :: inactive
3. CCC(C)N (configuration not stated) :: inactive
4. O=C(O[C@@H]1Cc2c(O)cc(O)cc2O[C@@H]1c1cc(O)c(O)c(O)c1)c1cc(O)c(O)c(O)c1 :: 26.8 µM (active)
5. CC/C=C\CCOC(=O)c1ccccc1O :: inactive
6. CC(=O)OC/C=C(/C)CCC=C(C)C :: inactive
7. CC(=O)OC(C)c1ccccc1 (configuration not stated) :: inactive
8. CCCCCC[C@@H](O)C/C=C\CCCCCCCC(=O)OCC(O)CO (some centres not stated) :: 67.2 µM (active)
9. C[Si](C)(C)N[Si](C)(C)C :: inactive
10. C=CC(=O)OCCCCCCCCCC :: inactive
11. CCC(C)(O)CCCC(C)C (configuration not stated) :: inactive
12. C=CCCCCCCCCOC(C)=O :: inactive
13. CCCCCCCOC(=O)c1ccc(O)cc1 :: 59.9 µM (active)
14. CCCCC(C=O)CC (configuration not stated) :: inactive
15. COC(=O)c1ccccc1C :: inactive
16. O=C(OCCc1ccccc1)c1ccccc1 :: inactive
17. Clc1cc(Cl)c(Cl)c(Cl)c1Cl :: 27.7 µM (active)
18. CCOC(=O)OC(=O)OCC :: inactive
19. CC(C)(C)N :: inactive
20. CC(C)(O)Cc1ccccc1 :: inactive
21. c1ccc(-c2nc3ccccc3[nH]2)cc1 :: inactive
22. c1ccc2c(c1)[nH]c1ccccc12 :: inactive
23. CCOC(=O)[C@H](O)[C@@H](O)C(=O)OCC :: inactive
24. COc1nccnc1CC(C)C :: inactive
25. c1ccc2cnccc2c1 :: inactive
26. CC(C)=CCCC(C)=CC#N :: inactive
27. CCNc1nc(NC(C)(C)C)nc(OC)n1 :: inactive
28. C=CC(C)(O)CC/C=C(\C)CC (configuration not stated) :: inactive
29. CCOc1ccc(NC(N)=O)cc1 :: inactive
30. c1ccc2sc(SSN3CCOCC3)nc2c1 :: 32.2 µM (active)
31. CC1(C)[C@@H]2CC[C@@]1(C)C(=O)C2 :: inactive
32. C=C(C)C1CC=C(C)C(OC(C)=O)C1 (configuration not stated) :: inactive
